- System: P388 leukemia ip, CD2F1 mice, survival T/C
- experiment: NCI In Vivo Anticancer Drug Screen. Data for tumor model P388 Leukemia (intraperitoneal) in CD2F1 (CDF1) mice
- assay_context: endpoint: median survival time; dose: 120.0 mg/kg/injection; schedule: Q01DX005 (ip); vehicle: Klucel (hydroxypropylcellulose) (HPC)
Toxic doses and inconclusive results are not listed. Rule for the calls: active = survival T/C of 150% or more; inactive = T/C below 125% in these data.
Output constraint: value belongs to yes (1) (active), no (0) (inactive)

N#Cc1c2ccc(N)cc2nc2cc(N)ccc12 :: no (0)
CCOC(=O)C1C(c2cc(OC)c(OC)c(OC)c2)c2cc3c(cc2OC1(C)N1CCCC1)OCO3 (configuration not stated) :: no (0)
CN(C)CN1C(=O)S/C(=C2\C(=O)N(CN(C)C)c3ccccc32)C1=O :: no (0)
O=C1Nc2ccccc2C1=Nc1cccc2cnccc12 :: no (0)

What is the recorded call for this compound in the test? O=C1C(c2nc3ccccc3[nH]2)=C(O)c2ccccc21
no (0)

What is the recorded call for this compound in the test? N#CC1=C(N)OC(C2CC2)=C(C#N)C1c1cccs1 (configuration not stated)
no (0)

What is the recorded call for this compound in the test? COc1cccc(C2(O)CCCc3c(C)ccnc32)c1 (configuration not stated)
no (0)

What is the recorded call for this compound in the test? c1ccc(C23CCCCC2O3)cc1 (configuration not stated)
no (0)

What is the recorded call for this compound in the test? CC(=O)N/N=C/C(C)(C)C(C)(C)/C=N/NC(C)=O
yes (1)

What is the recorded call for this compound in the test? NC(=O)c1nnn(Cc2cc(Cl)c(C(=O)c3ccc(Cl)cc3)c(Cl)c2)c1N
no (0)

What is the recorded call for this compound in the test? CC(C)CC(NC(c1ccccc1)(c1ccccc1)c1ccccc1)C(=O)O (configuration not stated)
no (0)

What is the recorded call for this compound in the test? CSC(=S)/C(=C/Nc1ncccn1)c1ccccc1
no (0)

What is the recorded call for this compound in the test? c1ccc2c(SCCCCCCSc3c4ccccc4nc4ccccc34)c3ccccc3nc2c1
no (0)

What is the recorded call for this compound in the test? CC1(C)C(C(=O)/C=C2\Nc3ccccc3C2(C)C)=Nc2ccccc21
no (0)

What is the recorded call for this compound in the test? O=C1C2=C(Nc3ccccc3N2)OC1c1ccc(C2OC3=C(Nc4ccccc4N3)C2=O)cc1 (configuration not stated)
no (0)

What is the recorded call for this compound in the test? C/[N+]([O-])=N\Nc1ccccc1SCCSc1ccccc1N/N=[N+](\C)[O-]
no (0)

What is the recorded call for this compound in the test? COc1ccccc1C1OC(N)=C(O)C1=O (configuration not stated)
no (0)
